- SYSTEM_UNDER_TEST: human α2δ-1 subunit of Cav2.2 calcium channel (Homo sapiens (Human), UniProt P54289)
- Sequence (P54289 25-1103): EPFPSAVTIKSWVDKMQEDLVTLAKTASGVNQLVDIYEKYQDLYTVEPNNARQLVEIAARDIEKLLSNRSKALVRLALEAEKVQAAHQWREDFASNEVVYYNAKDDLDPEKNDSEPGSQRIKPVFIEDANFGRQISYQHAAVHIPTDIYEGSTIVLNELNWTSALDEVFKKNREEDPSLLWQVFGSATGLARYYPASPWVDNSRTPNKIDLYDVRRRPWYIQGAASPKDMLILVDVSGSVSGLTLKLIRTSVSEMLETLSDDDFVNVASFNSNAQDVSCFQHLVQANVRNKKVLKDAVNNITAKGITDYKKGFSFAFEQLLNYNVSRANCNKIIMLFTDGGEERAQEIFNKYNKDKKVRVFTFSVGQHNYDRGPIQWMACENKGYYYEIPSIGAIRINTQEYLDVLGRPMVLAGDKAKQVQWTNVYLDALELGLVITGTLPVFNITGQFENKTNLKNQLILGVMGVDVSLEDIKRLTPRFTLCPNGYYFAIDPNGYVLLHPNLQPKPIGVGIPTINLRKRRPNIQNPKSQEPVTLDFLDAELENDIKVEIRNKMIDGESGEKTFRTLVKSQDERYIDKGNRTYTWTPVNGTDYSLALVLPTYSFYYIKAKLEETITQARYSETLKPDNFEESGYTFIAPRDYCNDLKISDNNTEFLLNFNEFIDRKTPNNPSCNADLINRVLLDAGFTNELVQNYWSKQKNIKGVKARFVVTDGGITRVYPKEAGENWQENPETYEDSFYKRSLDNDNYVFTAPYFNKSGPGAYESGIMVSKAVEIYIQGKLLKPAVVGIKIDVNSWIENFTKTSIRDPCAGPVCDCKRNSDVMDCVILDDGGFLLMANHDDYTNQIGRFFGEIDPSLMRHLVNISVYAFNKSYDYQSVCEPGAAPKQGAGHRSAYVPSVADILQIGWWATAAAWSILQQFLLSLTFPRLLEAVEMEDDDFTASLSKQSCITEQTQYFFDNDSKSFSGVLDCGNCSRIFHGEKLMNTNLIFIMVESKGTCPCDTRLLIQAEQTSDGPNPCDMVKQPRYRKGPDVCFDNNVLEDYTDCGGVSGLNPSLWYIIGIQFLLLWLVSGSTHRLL
- ASSAY_INFO: Binding assay to human α2δ-1 subunit of Cav2.2 calcium channel ([3H]-Gabapentin)
READOUT: Ki

INSERT INTO measurements (compound, reported_measurement) VALUES
  ('CCNc1ncc2c(n1)N(C)CCN(c1cccc(CO[C@@H](CCNC)c3cccs3)c1)C2=O (stereo in doubt)', '0.5 to 3 µM'),
  ('CCNc1ncc2c(n1)N(C)CCN(c1cccc(-n3cc(CN4CCC(c5cccc(O)c5)(N(C)C)CC4)nn3)c1)C2=O', '0.1 to 0.5 µM');

---

- SYSTEM_UNDER_TEST: human α2δ-1 subunit of Cav2.2 calcium channel (Homo sapiens (Human), UniProt P54289)
- ASSAY_INFO: Binding assay to human α2δ-1 subunit of Cav2.2 calcium channel ([3H]-Gabapentin)
- REPORTED_CONDITIONS: binding to α2δ-1, [3H]-Gabapentin; read-out: Ki (nM) α2δ-1
Documented Ki across a set of compounds
READOUT: Ki

INSERT INTO assay_data (compound, reported_measurement) VALUES
  ('CCNc1cc2c(cn1)C(=O)N(c1cccc(-c3nnc(C)o3)c1)CCN2C [Example 54]', '100 to 500 nM'),
  ('CCNc1ncc2c(n1)N(C)CCN(c1cccc(OCCCN(C)CCc3ccccc3)c1)C2=O [Example 258]', '500 to 3000 nM'),
  ('CCNc1ncc2c(n1)N(C)CCN(c1cccc(Cn3cc(CN(C)Cc4ccccc4)nn3)c1)C2=O [Example 250]', '500 to 3000 nM'),
  ('CSc1ncc2c(n1)N(C)CCN(c1cccc(C(C)(C)CN(C)C(=O)OC(C)(C)C)c1)C2=O [Example 25]', '> 3000 nM'),
  ('CCNc1ncc2c(n1)N(C)CCN(c1cccc(-n3cc(CN(C)Cc4ccccn4)nn3)c1)C2=O [Example 288]', '500 to 3000 nM'),
  ('CCNc1ncc2c(n1)N(C)CCN(Cc1ccc(OC(CN(C)C(=O)OC(C)(C)C)c3ccccc3)cc1)C2=O (centres unmarked) [Example 136]', '> 3000 nM'),
  ('Cc1nnc(-c2cccc(N3CCN(C)c4nc(N(C)Cc5ccccc5)ncc4C3=O)c2)o1 [Example 104]', '> 3000 nM'),
  ('Cc1ncc2c(n1)N(C)CCN(c1cccc(OC(CCN(C)C(=O)OCC[Si](C)(C)C)c3cccs3)c1)C2=O (centres unmarked) [Example 144]', '> 3000 nM');

---

- SYSTEM_UNDER_TEST: human α2δ-1 subunit of Cav2.2 calcium channel (Homo sapiens (Human), UniProt P54289)
- ASSAY_INFO: Binding assay to human α2δ-1 subunit of Cav2.2 calcium channel ([3H]-Gabapentin)
- REPORTED_CONDITIONS: Table 2, dual compounds; [3H]-Gabapentin binding; read-out: Ki (nM) α2δ-1
Documented Ki across a set of compounds
READOUT: Ki

INSERT INTO measurements (compound, reported_measurement) VALUES
  ('CCNc1ncc2c(n1)N(C)CCN(Cc1cccc(COC(CCNC)c3ccccc3)c1)C2=O (stereo not drawn)', '> 3000 nM'),
  ('CCNc1ncc2c(n1)N(C)CCN(c1cccc(OC(CCNC)c3ccccn3)c1)C2=O (stereo not drawn)', '500 to 3000 nM'),
  ('CNCC[C@H](Oc1ccc(CN2CCN(C)c3cc(N)ncc3C2=O)cc1)c1cccs1', '100 to 500 nM'),
  ('CNCCC(OCc1cccc(CN2CCN(C)c3nc(C)ncc3C2=O)c1)c1ccccc1 (stereo not drawn)', '> 3000 nM'),
  ('CCNc1ncc2c(n1)N(C)CCN(c1cccc(CO[C@H](CCNC)c3ccccc3)c1)C2', '500 to 3000 nM'),
  ('CCNc1ncc2c(n1)N(C)CCN(c1cccc(-n3cc(CN(C)Cc4ccccc4)nn3)c1)C2=O', '500 to 3000 nM'),
  ('CNCC[C@@H](OCc1cccc(N2CCN(C)c3nc(SC)ncc3C2=O)c1)c1ccccc1', '100 to 500 nM'),
  ('CCNc1ncc2c(n1)N(C)CCN(c1cccc(-n3cc(CNCC4CC4)nn3)c1)C2=O', '100 to 500 nM'),
  ('CSc1ncc2c(n1)N(C)CCN(c1cccc(COC3(c4ccccc4)CCN(C)CC3)c1)C2=O', '> 3000 nM'),
  ('CNCCC(OCc1cccc(N2CCN(C)c3nc(OC)ncc3C2=O)c1)c1cccs1 (stereo not drawn)', '100 to 500 nM'),
  ('CCNc1ncc2c(n1)N(C)CCN(c1cccc(OCCN(C)Cc3ccccc3)c1)C2=O', '100 to 500 nM'),
  ('CCNc1ncc2c(n1)N(C)CCN(c1cccc(-n3cc(CN(C)CCc4ccccc4)nn3)c1)C2=O', '500 to 3000 nM'),
  ('CNCCC(OCc1ccc(N2CCN(C)c3nc(SC)ncc3C2=O)cc1)c1ccccc1 (stereo not drawn)', '> 3000 nM'),
  ('CNCC[C@H](Oc1cccc(N2CCN(C)c3cc(N)ncc3C2=O)c1)c1cccs1', '100 to 500 nM'),
  ('CNCCC(OCc1ccc(CN2CCN(C)c3nc(SC)ncc3C2=O)cc1)c1ccccc1 (stereo not drawn)', '> 3000 nM'),
  ('CCNc1ncc2c(n1)N(C)CCN(Cc1ccc(OC(CNC)c3ccccc3)cc1)C2=O (stereo not drawn)', '> 3000 nM'),
  ('CNCCC(Oc1ccc(CN2CCN(C)c3ccncc3C2=O)cc1)c1cccs1 (stereo not drawn)', '100 to 500 nM'),
  ('CCNc1ncc2c(n1)N(C)CCN(c1cccc(COC(CNC)c3ccccc3)c1)C2=O (stereo not drawn)', '500 to 3000 nM'),
  ('CNCCC(Oc1cccc(N2CCN(C)c3cc(C)ncc3C2=O)c1)c1cccs1 (stereo not drawn)', '100 to 500 nM'),
  ('CNCC(OCc1ccc(CN2CCN(C)c3nc(SC)ncc3C2=O)cc1)c1ccccc1 (stereo not drawn)', '> 3000 nM'),
  ('CCNc1ncc2c(n1)N(C)CCN(c1cccc(-n3cc(CN(C)CCc4ccccc4)cn3)c1)C2=O', '500 to 3000 nM'),
  ('CCNc1ncc2c(n1)N(C)CCN(c1cccc(-n3cc(CN4CCCCC4)nn3)c1)C2=O', '100 to 500 nM'),
  ('CNCCC(OCc1cccc(N2CCN(C)c3nc(SC)ncc3C2=O)c1)c1ccccc1 (stereo not drawn)', '500 to 3000 nM'),
  ('CNCCC(OCc1ccc(CN2CCN(C)c3nc(C)ncc3C2=O)cc1)c1ccccc1 (stereo not drawn)', '> 3000 nM'),
  ('CCNc1cc2c(cn1)C(=O)N(c1cccc(COC(CCNC)c3ccccc3)c1)CCN2C (stereo not drawn)', '500 to 3000 nM'),
  ('CCNc1ncc2c(n1)N(C)CCN(c1ccc(COC(CNC)c3ccccc3)cc1)C2=O (stereo not drawn)', '> 3000 nM'),
  ('CNCCC(Oc1ccc(CN2CCN(C)c3ncncc3C2=O)cc1)c1ccccc1 (stereo not drawn)', '500 to 3000 nM'),
  ('CNCCC(OCc1cccc(N2CCN(C)c3nc(SC)ncc3C2=O)c1)c1cccs1 (stereo not drawn)', '500 to 3000 nM'),
  ('CCNc1ncc2c(n1)N(C)CCN(Cc1cccc(COC(CNC)c3ccccc3)c1)C2=O (stereo not drawn)', '> 3000 nM'),
  ('CNCC(OCc1cccc(N2CCN(C)c3nc(SC)ncc3C2=O)c1)c1ccccc1 (stereo not drawn)', '> 3000 nM'),
  ('CNCCC(Oc1ccc(CN2CCN(C)c3nc(SC)ncc3C2=O)cc1)c1ccccc1 (stereo not drawn)', '500 to 3000 nM'),
  ('CNC(COCc1cccc(N2CCN(C)c3nc(SC)ncc3C2=O)c1)c1ccccc1 (stereo not drawn)', '> 3000 nM'),
  ('CNCC(OCc1ccc(N2CCN(C)c3nc(C)ncc3C2=O)cc1)c1ccccc1 (stereo not drawn)', '> 3000 nM');
